Values compiled from PubChem BioAssay (NCATS).

Experiment: Quantitative High-Throughput drug screen in 47 multiple myeloma cell lines against the NCATS MIPE library collection: KMS28PE_JCRB cell viability assay (AID 1918983); further: nearly all actives have a fitted effect of over 35% in size
Settings: KMS28PE multiple myeloma viability, CellTiter-Glo ATP, 48 h; series mostly up to 45.8 µM
From the text: PI: Beverly A. Mock Ph.D. Laboratory of Cancer Biology and Genetics, Center for Cancer Research, National Cancer Institute, National Institute of Health, Bethesda, Maryland […] 5; Detector; 425V; Luminescence; Viewlux PerkinElmer. […] 1. […] Briefly, the corresponding myeloma cell lines were screened in 1,536-well plates with 500 cells, 5-uL per well for inhibition of cell viability (assessed by measuring ATP levels with CellTiterGlo). […]
Inconclusive results are not listed. Activity calls are given as the source filed them. The call rests on the fitted dose curve; in most records, active means well fitted cell-killing curve with a large enough effect; inconclusive means small, poorly fitted or top-dose-only effect, or effect the other way; inactive means no such curve, though single readings can be large or run the other way.
The categories you may choose from are 1 for active, 0 for inactive

>>> discrete_label("Cc1ccc(F)c(NC(=O)Nc2ccc(-c3cccc4[nH]nc(N)c34)cc2)c1")
1

For "CCC(=O)O[C@]1(C(=O)CO)CC[C@H]2[C@@H]3CCC4=CC(=O)CC[C@]4(C)[C@@H]3CC[C@@]21C" , what call appears in the results of this test?
0

For "CCC(=O)NC[C@H](Cc1ccc(OCCc2nc(-c3ccccc3)oc2C)cc1)NC(C)=CC(=O)c1ccc(C(F)(F)F)cc1" , what call appears in the results of this test?
1

For "CCOc1ccc(Nc2nc(-c3c(C)nc4ccccn34)cs2)cc1" , what call appears in the results of this test?
1

For "CCOC(=O)O[C@]1(C(=O)OCCl)CC[C@@H]2[C@H]3CCC4=CC(=O)C=C[C@]4(C)[C@@H]3[C@@H](O)C[C@@]21C" , what call appears in the results of this test?
0

For "O=C1C(Cl)=C(NCCN2CCOCC2)C(=O)c2ncccc21" , what call appears in the results of this test?
1

For CC(=O)OC1C(C)OC(Oc2c(-c3ccc(O)cc3)oc3cc(O)cc(O)c3c2=O)C(O)C1OC(C)=O (configuration not stated) , what call appears in the results of this test?
0

For CS(=O)c1ccc(-c2nc(-c3ccc(F)cc3)c(-c3ccncc3)[nH]2)cc1 (configuration not stated) , what call appears in the results of this test?
0

For "Cc1cc(OCCCc2c(C(=O)O)n(Cc3cccnc3)c3c(-c4c(COc5ccc(N6CCN([S+](C)(=O)[O-])CC6)cc5)nn(C)c4C)cccc23)cc(C)c1Cl" , what call appears in the results of this test?
1

###

assay: Quantitative High-Throughput drug screen in 47 multiple myeloma cell lines against the NCATS MIPE library collection: KMS12BM_JCRB cell viability assay (AID 1918971); conditions: KMS12BM myeloma viability, CellTiter-Glo ATP, 48 h; series mostly up to 45.8 µM; further: nearly all actives have a fitted effect of over 35% in size
Records with an inconclusive call do not appear. Calls of active or inactive are those of the source. The call rests on the fitted dose curve; in most records, active means well fitted cell-killing curve with a large enough effect; inconclusive means small, poorly fitted or top-dose-only effect, or effect the other way; inactive means no such curve, though single readings can be large or run the other way.
The categories you may choose from are TRUE for active, FALSE for inactive

Worked examples follow.
>>> discrete_label("CO[C@H]1C[C@@H]2CC[C@@H](C)[C@@](O)(O2)C(=O)C(=O)N2CCCC[C@@H]2C(=O)O[C@H]([C@H](C)C[C@@H]2CC[C@H](OCCO)[C@H](OC)C2)CC(=O)[C@H](C)C=C(C)[C@@H](O)[C@@H](OC)C(=O)[C@H](C)C[C@H](C)C=CC=CC=C1C")
"TRUE"
>>> discrete_label("c1ccc2c(Cc3c[nH]c4ccccc34)c[nH]c2c1")
"TRUE"
>>> discrete_label("CN(C[C@@H]1COCCO1)S(=O)(=O)Nc1ccc2ccc3ncc(-c4cnn(C)c4)cc3c(=O)c2c1")
"TRUE"
>>> discrete_label("CC[C@H]1OC(=O)[C@H](C)[C@@H](O[C@H]2C[C@@](C)(OC)[C@@H](O)[C@H](C)O2)[C@H](C)[C@@H](O[C@@H]2O[C@H](C)C[C@H](N(C)C)[C@@H]2O)[C@](C)(O)C[C@@H](C)CN(C)[C@H](C)[C@@H](O)[C@]1(C)O")
"FALSE"
>>> discrete_label("Cc1ccc(Nc2cc(-c3cccc(N4C(=O)c5ccccc5C4=O)c3)ncn2)cc1NS(C)(=O)=O")
"TRUE"
>>> discrete_label("O=C(N[C@@H](c1ccccc1)[C@@H]1CCCCN1)c1cccc(C(F)(F)F)c1Cl")
"TRUE"
>>> discrete_label("O=C1NC(=O)C(=Cc2ccc3nccnc3c2)S1")
"TRUE"
>>> discrete_label("CC[C@@]1(O)C[C@H](O[C@H]2C[C@H](N(C)C)[C@H](O[C@H]3C[C@H](O)[C@H](O[C@H]4CCC(=O)[C@H](C)O4)[C@H](C)O3)[C@H](C)O2)c2c(cc3c(c2O)C(=O)c2c(O)cccc2C3=O)[C@@H]1C(=O)OC")
"TRUE"

Shifting focus to the compound that follows.
For NC1CCC(Nc2nc(Nc3ccc(C(=O)N4CCCCC4)cc3)c3ncn(-c4cccc(F)c4)c3n2)CC1 (centres undefined) , what call appears in the results of this test?
FALSE

###

assay: qHTS of pediatric cancer cell lines to identify multiple opportunities for drug repurposing: Primary screen for BT-37 cells (AID 1347094); details: BT-37 viability, CellTiter-Glo luminescence, 48 h; series mostly up to 57.3 µM; further: potency means the concentration at half of the fitted maximal effect
Results filed as inconclusive are left out. Active and inactive are the calls of the source. The call rests on the fitted dose curve; in most records, active means well fitted cell-killing curve with a large enough effect; inconclusive means small, poorly fitted or top-dose-only effect; inactive means flat fitted curve, though single readings scatter.
value type: Potency

Use these answered entries as a reference point.
>>> recorded_value("Cc1ccc(C(=O)Nc2cccc(C(F)(F)F)c2)cc1Nc1nc(-c2cccnc2)nc2c1cnn2C")
"24300 nM (active)"
>>> recorded_value("CCCCC1C(=O)N(c2ccccc2)N(c2ccccc2)C1=O")
"inactive"
>>> recorded_value("NC(=O)NN=Cc1ccc([N+](=O)[O-])o1")
"inactive"
>>> recorded_value("NC1=N[C@@]2(c3cc(NC(=O)c4ccc(F)cn4)ccc3F)COC[C@@H]2CS1")
"122 nM (active)"
>>> recorded_value("CO[C@H]1C=CC=C(C)C(=O)NC2=CC(=O)C(NCCN(C)C)=C(C[C@@H](C)C[C@H](OC)[C@@H](O)[C@@H](C)C=C(C)[C@@H]1OC(N)=O)C2=O")
"385 nM (active)"

// batch mode: one Potency value per listed entry
1. CN(C)c1cc(NC(=O)CNC(C)(C)C)c(O)c2c1C[C@@H]1C[C@H]3[C@H](N(C)C)C(=O)C(C(N)=O)=C(O)[C@@]3(O)C(=O)C1=C2O
2. CCN(CC)CCOc1ccc(C(=C(Cl)c2ccccc2)c2ccccc2)cc1

inactive
inactive

###

test: qHTS of pediatric cancer cell lines to identify multiple opportunities for drug repurposing: Primary screen for MG 63 (6-TG R) cells (AID 1347105); settings: MG 63 (6-TG R) viability, CellTiter-Glo, 48 h; series mostly up to 46 µM; further: nearly all actives have a fitted effect of over 50% in size
Records with an inconclusive call do not appear. Activity calls are given as the source filed them. Calls follow the shape of the dose curve; as a rule, active = well fitted cell-killing curve with a large enough effect; inconclusive = small, poorly fitted or top-dose-only effect; inactive = no such curve, though single readings can be large or run the other way.
The categories you may choose from are label 1 for active, label 0 for inactive

>>> discrete_label("CN1C[C@H]2c3ccccc3Oc3ccc(Cl)cc3[C@@H]2C1")
"label 0"

For "Nc1nc(F)nc2c1ncn2[C@@H]1O[C@H](COP(=O)(O)O)[C@@H](O)[C@H]1O" , what call appears in the results of this test?
label 1

For O=C(NOCC(O)CO)c1cc(Br)c(F)c(F)c1Nc1ccc(I)cc1F (centres undefined) , what call appears in the results of this test?
label 1

For "N[C@@]1(C(=O)O)CS(=O)(=O)[C@H]2[C@H](C(=O)O)[C@H]21" , what call appears in the results of this test?
label 0

For "O=C1C(Cl)=C(NCCN2CCOCC2)C(=O)c2ncccc21" , what call appears in the results of this test?
label 1

For "O=C(O)CCc1nc(-c2ccccc2)c(-c2ccccc2)o1" , what call appears in the results of this test?
label 0

For C[C@]12CC[C@@H]3c4ccc(O)cc4C[C@@H](CCCCCCCCCS(=O)CCCC(F)(F)C(F)(F)F)[C@H]3[C@H]1CC[C@H]2O (some centres undefined) , what call appears in the results of this test?
label 0

For "CO[C@H]1C=CC=C(C)C(=O)NC2=CC(=O)C(NCCN(C)C)=C(C[C@@H](C)C[C@H](OC)[C@@H](O)[C@@H](C)C=C(C)[C@@H]1OC(N)=O)C2=O" , what call appears in the results of this test?
label 1

For "Cc1ccc(/C=N/NC(=O)c2ccccc2Oc2ccccc2)o1" , what call appears in the results of this test?
label 0

###

assay: qHTS Screen of the MIPE 4.0 Collection Against Ewings Sarcoma (EW8) (AID 1259255); conditions: EW8 Ewing sarcoma viability, CellTiter-Glo, 48 h; series mostly up to 45.8 µM; further: nearly all actives have a fitted effect of over 35% in size; further: potency means the concentration at half of the fitted maximal effect;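 on viability: 100% = DMSO-treated cells and 0% = medium-only wells without cells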
Inconclusive results are not listed. The source made the active and inactive calls. Calls follow the shape of the dose curve; as a rule, active = well fitted inhibition curve with a large enough effect; inconclusive = small, poorly fitted or top-dose-only effect; inactive = no such curve, though single readings can be large or run the other way.
value type: Potency

Use these answered entries as a reference point.
>>> recorded_value("CC(C)(C)c1cc(C(=O)O)c(NC(=O)Nc2ccc3[nH]ncc3c2)s1")
"inactive"
>>> recorded_value("O=C(CCN1CCN(C(=O)OCc2cc(Cl)cc(Cl)c2)CC1)c1ccc2[nH]c(=O)oc2c1")
"inactive"
>>> recorded_value("CC(=O)Nc1ccc([C@H](C)C(=O)Nc2ncc(C(C)C)s2)cc1")
"5.9 µM (active)"
>>> recorded_value("COc1ccc(C2Sc3ccccc3N(CCN(C)C)C(=O)C2OC(C)=O)cc1 (stereo not drawn)")
"inactive"
>>> recorded_value("Cc1c(O)cccc1C(=O)N[C@@H](CSc1ccccc1)[C@H](O)CN1C[C@H]2CCCC[C@@H]2C[C@@H]1C(=O)NC(C)(C)C")
"23.5 µM (active)"
>>> recorded_value("O=C(O)C=Cc1ccc(O)c(O)c1")
"23.5 µM (active)"

// batch mode: one Potency value per listed entry
1. O=C1C(Cl)=C(NCCN2CCOCC2)C(=O)c2ncccc21
2. CC1(C)CCC2=C(O1)c1ccccc1C(=O)C2=O

["3.72 µM (active)", "23.5 µM (active)"]
